B1: CPEB3 Ribozyme (parent)
chain: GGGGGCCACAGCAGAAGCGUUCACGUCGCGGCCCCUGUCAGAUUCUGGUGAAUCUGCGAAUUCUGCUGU

Variants of: B1
assay explanation: self-cleavage, relative activity (ratio to wild type); higher = more cleavage; co-transcriptional

[
  {
    "variant description": "G3A C57A",
    "self-cleavage": 0.11
  },
  {
    "variant description": "C32A U38G",
    "self-cleavage": 0.271
  },
  {
    "variant description": "A15U G28U",
    "self-cleavage": 0.167
  },
  {
    "variant description": "G19C U55C",
    "self-cleavage": 0.163
  },
  {
    "variant description": "C7U C32G",
    "self-cleavage": 0.148
  },
  {
    "variant description": "U21G A59C",
    "self-cleavage": 0.223
  },
  {
    "variant description": "G5U U53G",
    "self-cleavage": 0.152
  },
  {
    "variant description": "C18A G58U",
    "self-cleavage": 0.184
  },
  {
    "variant description": "G5U U21C",
    "self-cleavage": 0.119
  },
  {
    "variant description": "G11C A40G",
    "self-cleavage": 0.643
  }
]
